Target: T1, biotinylated hOX40L (R&D Systems, biotinylated in house) (human, UniProt P23510 51-183, biotinylated with Sulfo-NHS-LC-Biotin, sites not stated)
T1 construct: same bought protein as m10, biotinylated; also called biotinylated OX40L
T1 sequence: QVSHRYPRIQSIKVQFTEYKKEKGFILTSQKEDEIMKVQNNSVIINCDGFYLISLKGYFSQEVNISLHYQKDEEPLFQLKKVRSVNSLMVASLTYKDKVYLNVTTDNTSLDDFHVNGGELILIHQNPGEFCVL
Assay: hOX40L/hOX40 AlphaScreen, sample heated 1 min at Tm+10 C
REPORTED METRIC: IC50 (nM)

OX40L024 (VHH, not shown: small tags and cut ends) VHH: EVQLVESGGGLVQPGGSLRLSCAASGRTFSSIYAKGWFRQAPGKEREFVAAISRSGRSTSYADSVKGRFTISRDNAKNTVYLQMNSLRPEDTAVYYCAAVGGATTVTASEWDYWGLGTLVTVSS = 0.07
OX40L025 (VHH, not shown: small tags and cut ends) VHH: EVQLVESGGGLVQPGGSLRLSCAASGRTFSSIYAKGWFRQAPGKEREFVAAISRSGRSTSYADSVKGRFTISRDNSKNTVYLQMNSLRPEDTAVYYCAAVGGATTVTASEWDYWGLGTLVTVSS = 0.05
